Hey, just so you know, these numbers are from ChEMBL document CHEMBL3875196.

Test description: Antiproliferative activity against wild type p110alpha expressing human NZB5 cells after 5 days by [3H]-thymidine incorporation assay
Assay type: functional, cell-based
Endpoint: IC50 (nM)
Only the number, expressed in nM, is required.

IC50 in this record for CN(CCCN1CCOCC1)c1ccc([N+](=O)[O-])cc1S(=O)(=O)N(C)/N=C/c1cnn2ccc(Br)cc12 : 94

IC50 in this record for C/C(=N\N(C)S(=O)(=O)c1cc([N+](=O)[O-])ccc1N(C)CCN(C)C)c1cnn2ccc(Br)cc12 : 3500

IC50 in this record for C/C(=N\N(C)S(=O)(=O)c1cc([N+](=O)[O-])ccc1N(C)CCCN1CCOCC1)c1cnn2ccc(C#N)cc12 : 3300

IC50 in this record for CN(C)CCN(C)c1ccc([N+](=O)[O-])cc1S(=O)(=O)N(C)/N=C/c1cnn2ccc(C#N)cc12 : 49

IC50 in this record for CN(C)CCOc1ccc([N+](=O)[O-])cc1S(=O)(=O)N(C)/N=C/c1cnn2ccc(C#N)cc12 : 100

====

Experimental target: PI3K p110 beta/p85 alpha (Homo sapiens)
Sequence (P27986 whole entry): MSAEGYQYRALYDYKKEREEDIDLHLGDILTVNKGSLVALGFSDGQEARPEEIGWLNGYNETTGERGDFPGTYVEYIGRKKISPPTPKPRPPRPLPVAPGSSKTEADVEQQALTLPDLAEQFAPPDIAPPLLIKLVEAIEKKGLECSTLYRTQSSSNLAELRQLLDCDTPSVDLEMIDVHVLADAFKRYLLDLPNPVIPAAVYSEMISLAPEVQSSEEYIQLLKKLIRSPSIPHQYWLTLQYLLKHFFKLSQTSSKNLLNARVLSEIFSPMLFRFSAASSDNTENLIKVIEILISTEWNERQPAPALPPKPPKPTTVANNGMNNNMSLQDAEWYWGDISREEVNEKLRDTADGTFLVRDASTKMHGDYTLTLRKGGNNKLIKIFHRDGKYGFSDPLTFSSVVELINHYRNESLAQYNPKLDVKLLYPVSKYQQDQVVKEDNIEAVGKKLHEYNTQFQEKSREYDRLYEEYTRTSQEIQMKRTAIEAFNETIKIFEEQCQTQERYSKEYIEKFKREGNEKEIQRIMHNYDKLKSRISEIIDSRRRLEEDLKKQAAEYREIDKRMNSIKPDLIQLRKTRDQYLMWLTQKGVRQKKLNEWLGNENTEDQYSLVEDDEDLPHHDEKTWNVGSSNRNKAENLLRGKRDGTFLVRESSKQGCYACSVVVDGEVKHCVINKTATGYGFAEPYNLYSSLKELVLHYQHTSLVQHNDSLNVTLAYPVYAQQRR
Sequence (P42338 whole entry): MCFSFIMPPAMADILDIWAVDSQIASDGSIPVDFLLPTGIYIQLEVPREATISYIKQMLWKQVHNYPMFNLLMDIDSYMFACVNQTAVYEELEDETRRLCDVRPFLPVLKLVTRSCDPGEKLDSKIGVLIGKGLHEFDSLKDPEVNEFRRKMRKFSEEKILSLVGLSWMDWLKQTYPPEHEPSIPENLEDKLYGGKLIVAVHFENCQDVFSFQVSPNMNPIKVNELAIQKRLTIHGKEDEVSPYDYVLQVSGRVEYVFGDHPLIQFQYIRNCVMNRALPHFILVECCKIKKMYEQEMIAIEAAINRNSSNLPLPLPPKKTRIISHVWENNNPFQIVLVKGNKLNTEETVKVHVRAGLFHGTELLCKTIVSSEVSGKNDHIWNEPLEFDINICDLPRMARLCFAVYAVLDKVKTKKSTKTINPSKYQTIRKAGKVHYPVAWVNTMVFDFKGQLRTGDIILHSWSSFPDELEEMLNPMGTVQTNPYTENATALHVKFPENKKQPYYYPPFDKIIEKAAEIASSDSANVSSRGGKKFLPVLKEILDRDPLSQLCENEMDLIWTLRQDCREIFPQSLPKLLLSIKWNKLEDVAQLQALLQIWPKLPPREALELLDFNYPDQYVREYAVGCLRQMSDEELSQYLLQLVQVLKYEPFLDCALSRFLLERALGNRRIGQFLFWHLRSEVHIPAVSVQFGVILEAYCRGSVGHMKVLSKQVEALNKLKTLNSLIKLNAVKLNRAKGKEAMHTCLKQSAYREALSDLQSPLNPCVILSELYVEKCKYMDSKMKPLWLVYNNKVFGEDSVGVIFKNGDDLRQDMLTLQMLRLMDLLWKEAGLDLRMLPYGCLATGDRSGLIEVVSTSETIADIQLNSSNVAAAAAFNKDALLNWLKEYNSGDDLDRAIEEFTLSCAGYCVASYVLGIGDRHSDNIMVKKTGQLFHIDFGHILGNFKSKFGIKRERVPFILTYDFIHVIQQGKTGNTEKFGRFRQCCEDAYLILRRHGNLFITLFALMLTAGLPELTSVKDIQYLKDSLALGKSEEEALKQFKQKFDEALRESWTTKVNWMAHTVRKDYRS
Test description: Inhibition of recombinant human p110beta/N-terminal His-tagged human p85alpha expressed in baculovirus infected sf cells using L-alpha-phosphatidylinositol as substrate after 1 hr in presence of [gamma33]-ATP by thin layer chromatographic analysis
Label YES when IC50 < 900 nM; otherwise NO.

Is IC50 of C/C(=N\N(C)S(=O)(=O)c1cc([N+](=O)[O-])ccc1N(C)CCN(C)C)c1cnn2ccc(C#N)cc12 strictly below 900 nM?
NO

Is IC50 of CN(CCN)c1ccc([N+](=O)[O-])cc1S(=O)(=O)N(C)/N=C/c1cnn2ccc(C#N)cc12 strictly below 900 nM?
NO

Is IC50 of CN(C)CCOc1ccc([N+](=O)[O-])cc1S(=O)(=O)N(C)/N=C/c1cnn2ccc(C#N)cc12 strictly below 900 nM?
NO

Is IC50 of CN(CCc1ccccn1)c1ccc([N+](=O)[O-])cc1S(=O)(=O)N(C)/N=C/c1cnn2ccc(C#N)cc12 strictly below 900 nM?
YES

Is IC50 of CN(C)CCNc1ccc([N+](=O)[O-])cc1S(=O)(=O)N(C)/N=C/c1cnn2ccc(C#N)cc12 strictly below 900 nM?
NO

Is IC50 of CNCCN(C)c1ccc([N+](=O)[O-])cc1S(=O)(=O)N(C)/N=C/c1cnn2ccc(C#N)cc12 strictly below 900 nM?
NO

Is IC50 of CN(CCN1CCCCC1)c1ccc([N+](=O)[O-])cc1S(=O)(=O)N(C)/N=C/c1cnn2ccc(C#N)cc12 strictly below 900 nM?
NO

Is IC50 of CN(C)CCN(C)c1ccc([N+](=O)[O-])cc1S(=O)(=O)N(C)/N=C/c1cnn2ccc(C#N)cc12 strictly below 900 nM?
YES

Is IC50 of CN(CCc1cccnc1)c1ccc([N+](=O)[O-])cc1S(=O)(=O)N(C)/N=C/c1cnn2ccc(C#N)cc12 strictly below 900 nM?
YES

Is IC50 of CN(Cc1ccncc1)c1ccc([N+](=O)[O-])cc1S(=O)(=O)N(C)/N=C/c1cnn2ccc(C#N)cc12 strictly below 900 nM?
YES

Is IC50 of CN(Cc1ccccn1)c1ccc([N+](=O)[O-])cc1S(=O)(=O)N(C)/N=C/c1cnn2ccc(Br)cc12 strictly below 900 nM?
NO

Is IC50 of CN(CCCN1CCOCC1)c1ccc(C#N)cc1S(=O)(=O)N(C)/N=C/c1cnn2ccc(C#N)cc12 strictly below 900 nM?
NO

Is IC50 of CN(/N=C/c1cnn2ccc(C#N)cc12)S(=O)(=O)c1cc([N+](=O)[O-])ccc1OCc1ccccn1 strictly below 900 nM?
NO

Is IC50 of CN(Cc1ccccn1)c1ccc([N+](=O)[O-])cc1S(=O)(=O)N(C)/N=C/c1cnn2ccc(C#N)cc12 strictly below 900 nM?
YES

Is IC50 of CN(CCc1ccncc1)c1ccc([N+](=O)[O-])cc1S(=O)(=O)N(C)/N=C/c1cnn2ccc(C#N)cc12 strictly below 900 nM?
YES

Is IC50 of CCN(CC)CCN(C)c1ccc([N+](=O)[O-])cc1S(=O)(=O)N(C)/N=C/c1cnn2ccc(C#N)cc12 strictly below 900 nM?
YES

Is IC50 of CN(/N=C/c1cnn2ccc(C#N)cc12)S(=O)(=O)c1cc([N+](=O)[O-])ccc1NCCN1CCOCC1 strictly below 900 nM?
NO

Is IC50 of CN(/N=C/c1cnn2ccc(C#N)cc12)S(=O)(=O)c1cc([N+](=O)[O-])ccc1NCc1ccccn1 strictly below 900 nM?
NO

Is IC50 of CN(CCn1ccnc1)c1ccc([N+](=O)[O-])cc1S(=O)(=O)N(C)/N=C/c1cnn2ccc(C#N)cc12 strictly below 900 nM?
YES

Is IC50 of CN(/N=C/c1cnn2ccc(Br)cc12)S(=O)(=O)c1cc([N+](=O)[O-])ccc1OCCN1CCOCC1 strictly below 900 nM?
NO

Is IC50 of CN(/N=C/c1cnn2ccc(C#N)cc12)S(=O)(=O)c1cc(C#N)ccc1OCCN1CCOCC1 strictly below 900 nM?
NO

Is IC50 of C/C(=N\N(C)S(=O)(=O)c1cc([N+](=O)[O-])ccc1N(C)Cc1ccccn1)c1cnn2ccc(C#N)cc12 strictly below 900 nM?
NO

Is IC50 of C/C(=N\NS(=O)(=O)c1cc([N+](=O)[O-])ccc1N(C)Cc1ccccn1)c1cnn2ccc(Br)cc12 strictly below 900 nM?
NO

Is IC50 of CN(C)CCN(C)c1ccc(C#N)cc1S(=O)(=O)N(C)/N=C/c1cnn2ccc(C#N)cc12 strictly below 900 nM?
NO

Is IC50 of C/C(=N\NS(=O)(=O)c1cc([N+](=O)[O-])ccc1N(C)CCN(C)C)c1cnn2ccc(Br)cc12 strictly below 900 nM?
NO

Is IC50 of CN(CCc1c[nH]cn1)c1ccc([N+](=O)[O-])cc1S(=O)(=O)N(C)/N=C/c1cnn2ccc(C#N)cc12 strictly below 900 nM?
YES
